Recorded viability, T/C values for a group of compounds are listed next.
System: MDA-MB-468 spheroids with HUVEC/MSC, viability
Test: Anticancer human tumor MDA-MB-468 cell line growth inhibition [PI3K];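 further: spheroids exposed to agents for seven days before readout; 100% = DMSO vehicle control viability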
Details: second compound 0.01 µM; first compound 0.0316 µM; stronger effect = lower value
property.label: viability, T/C (%)

[[record]]
compound = "C=CC(=O)N1CCN(c2nc(=O)n(-c3c(C)ccnc3C(C)C)c3nc(-c4c(O)cccc4F)c(F)cc23)C(C)C1 (configuration not stated) + COc1c(OCCCN2CCOCC2)ccc2c3n(c(=NC(=O)c4cnc(N)nc4)nc12)CCN3"
observed_result = 81.1

[[record]]
compound = "C#Cc1c(F)ccc2cc(O)cc(-c3ncc4c(N5CC6CCC(C5)N6)nc(OCC56CCCN5CC(F)C6)nc4c3F)c12 (configuration not stated) + CC(Nc1ccc2c(c1)OCCn1cc(N3C(=O)OCC3C(F)F)nc1-2)C(N)=O"
observed_result = 95.7

[[record]]
compound = "C#Cc1c(F)ccc2cc(O)cc(-c3ncc4c(N5CC6CCC(C5)N6)nc(OCC56CCCN5CC(F)C6)nc4c3F)c12 (configuration not stated) + COc1c(OCCCN2CCOCC2)ccc2c3n(c(=NC(=O)c4cnc(N)nc4)nc12)CCN3"
observed_result = 72.7

[[record]]
compound = "C[C@@H](NC(=O)c1ncnc(N)c1Cl)c1ncc(C(=O)Nc2cc(C(F)(F)F)c(Cl)cn2)s1 + COc1c(OCCCN2CCOCC2)ccc2c3n(c(=NC(=O)c4cnc(N)nc4)nc12)CCN3"
observed_result = 87

[[record]]
compound = "CC1(C)CCC(CN2CCN(c3ccc(C(=O)NS(=O)(=O)c4ccc(NCC5CCOCC5)c([N+](=O)[O-])c4)c(Oc4cnc5[nH]ccc5c4)c3)CC2)=C(c2ccc(Cl)cc2)C1 + CC(Nc1ccc2c(c1)OCCn1cc(N3C(=O)OCC3C(F)F)nc1-2)C(N)=O"
observed_result = 91.8

[[record]]
compound = "CCN1CCN(Cc2ccc(Nc3ncc(F)c(-c4cc(F)c5nc(C)n(C(C)C)c5c4)n3)nc2)CC1 + CC(Nc1ccc2c(c1)OCCn1cc(N3C(=O)OCC3C(F)F)nc1-2)C(N)=O"
observed_result = 83.4

[[record]]
compound = "C[C@@H](NC(=O)c1ncnc(N)c1Cl)c1ncc(C(=O)Nc2cc(C(F)(F)F)c(Cl)cn2)s1 + CC(Nc1ccc2c(c1)OCCn1cc(N3C(=O)OCC3C(F)F)nc1-2)C(N)=O"
observed_result = 104

[[record]]
compound = "CC1(C)CCC(CN2CCN(c3ccc(C(=O)NS(=O)(=O)c4ccc(NCC5CCOCC5)c([N+](=O)[O-])c4)c(Oc4cnc5[nH]ccc5c4)c3)CC2)=C(c2ccc(Cl)cc2)C1 + COc1c(OCCCN2CCOCC2)ccc2c3n(c(=NC(=O)c4cnc(N)nc4)nc12)CCN3"
observed_result = 79.2

[[record]]
compound = "CNC(=O)c1ccc(N2C(=S)N(c3ccc(C#N)c(C(F)(F)F)c3)C(=O)C2(C)C)cc1F + CC(Nc1ccc2c(c1)OCCn1cc(N3C(=O)OCC3C(F)F)nc1-2)C(N)=O"
observed_result = 100

[[record]]
compound = "CNC(=O)c1ccc(N2C(=S)N(c3ccc(C#N)c(C(F)(F)F)c3)C(=O)C2(C)C)cc1F + COc1c(OCCCN2CCOCC2)ccc2c3n(c(=NC(=O)c4cnc(N)nc4)nc12)CCN3"
observed_result = 81.9

[[record]]
compound = "CCN1CCN(Cc2ccc(Nc3ncc(F)c(-c4cc(F)c5nc(C)n(C(C)C)c5c4)n3)nc2)CC1 + COc1c(OCCCN2CCOCC2)ccc2c3n(c(=NC(=O)c4cnc(N)nc4)nc12)CCN3"
observed_result = 82

[[record]]
compound = "CC(Cn1ccc(-c2ccc(C#N)c(Cl)c2)n1)NC(=O)c1cc(C(C)O)[nH]n1 (configuration not stated) + CC(Nc1ccc2c(c1)OCCn1cc(N3C(=O)OCC3C(F)F)nc1-2)C(N)=O"
observed_result = 102

